# MEASUREMENT NOTES: Log P by HPLC on reversed phase columns (EEC directive 79/831 Annex V.A8)
# Assay type: physicochemical
# ASSAY SETUP: method marker [a] given with each value; Table 1.1, compounds of formula (I)
RECORDED ENDPOINT: LogP

Some entries whose results are on file:
INSERT INTO measurements (compound, recorded_endpoint, observed_result) VALUES
  ('Cc1c(C(=O)NC2(C(=O)OC(C)C)CC2)sc(C#N)c1Br [1.0964]', 'LogP', '2.93^[a]'),
  ('C#CCOC(=O)C1(NC(=O)c2sc(C#N)c(Br)c2C)CC1 [1.0963]', 'LogP', '2.61^[a]'),
  ('C=CCOC(=O)C1(NC(=O)c2sc(C#N)c(Br)c2C)CC1 [1.0962]', 'LogP', '2.81^[a]'),
  ('CNC(=S)C1(NC(=O)c2sc(Br)c(Br)c2F)CC1 [1.0976]', 'LogP', '2.82^[a]'),
  ('O=C(CNC(=O)c1sc(Br)c(Br)c1F)OC1CSC1 [1.1007]', 'LogP', '3.37^[a]'),
  ('CC(C)COC(=O)CNC(=O)c1sc(Br)c(Br)c1F [1.1000]', 'LogP', '3.88^[a]'),
  ('CCOC(=O)C(NC(=O)c1sc(C#N)c(Br)c1C)C1CC1 (stereo not shown) [1.0974]', 'LogP', '3.15^[a]'),
  ('C=CCOC(=O)CNC(=O)c1sc(C#N)c(Br)c1C [1.0994]', 'LogP', '2.65^[a]'),
  ('CCCOC(=O)CNC(=O)c1sc(Br)c(Br)c1Cl [1.0983]', 'LogP', '3.76^[a]');

Alright, here's another compound for you.
Asked: Endpoint output: LogP of COC(=O)C(NC(=O)c1sc(Br)c(Br)c1F)c1cccs1 (racemic) [1.0953] . Value?
Given back: 3.84^[a]

====

Answer each item with its documented LogP.
# MEASUREMENT NOTES: Log P by HPLC on reversed phase columns (EEC directive 79/831 Annex V.A8)
# Assay type: physicochemical
# ASSAY SETUP: method [a]

Some entries whose results are on file:
INSERT INTO assay_data (compound, observed_result) VALUES
  ('CCOC(=O)C(CCSC)NC(=O)c1sc(Br)c(Br)c1Cl (centres unmarked)', '4.46^[a]'),
  ('COC(=O)C(C)(C)NC(=O)c1sc(Cl)c(C#N)c1Br', '2.83^[a]');

Items follow; give LogP for each.
1. O=C(CNC(=O)c1sc(Br)c(Br)c1Cl)OC1CCOCC1
2. CC(C#N)(NC(=O)c1sc(Br)c(Br)c1F)C1CC1 (centres unmarked)
3. CCOC(=O)CNC(=O)c1sc(Br)c(Cl)c1Cl

Given back:
3.14^[a]
3.47^[a]
3.28^[a]

====

# MEASUREMENT NOTES: Log P by HPLC on reversed phase columns (EEC directive 79/831 Annex V.A8)
# Type: physicochemical
# ASSAY SETUP: LogP method [a]; compounds of formula (I), Table 1.1
Answer each item with its documented LogP.

Some entries whose results are on file:
INSERT INTO results (compound, recorded_endpoint, observed_result) VALUES
  ('COC(=O)CNC(=O)c1sc(Br)c(C#N)c1Br [1.0406]', 'LogP', '2.22^[a]'),
  ('CCOC(=O)C1(NC(=O)c2sc(Br)c(Cl)c2F)CCC1 [1.0428]', 'LogP', '3.73^[a]');

Items follow; give LogP for each.
1. COC(=O)C(NC(=S)c1sc(Br)c(Br)c1F)C1CC1 (stereo not shown) [1.0496]
2. CSC(=O)C1(NC(=O)c2cc(I)c(I)s2)CC1 [1.0477]
3. COC(=O)CNC(=O)c1sc(Br)c(Br)c1F [1.0527]
4. CCOC(=O)C(CCSC)NC(=O)c1sc(Cl)c(Cl)c1C(F)F (stereo not shown) [1.0419]
5. COC(=O)C(NC(=O)c1sc(Br)c(Cl)c1F)C1CC1 (stereo not shown) [1.0427]
6. CCOC(=O)C(NC(=O)c1sc(Br)c(C#N)c1Br)C(C)C (stereo not shown) [1.0410]
7. CCOC(=O)C1(NC(=S)c2cc(Cl)c(Br)s2)CC1 [1.0479]

Given back:
4.62^[a]
3.04^[a]
2.52^[a]
3.86^[a]
3.38^[a]
3.84^[a]
3.92^[a]
